Reported IC50 values for a set of compounds
biological target: mTORC1 (Homo sapiens, UniProt P42345+P62942); construct: endogenous in cells; host or cells: PC3 cells (human prostate adenocarcinoma); experiment: Inhibition assay for mTORC1: phosphorylation of pS6K at Thr389, AlphaLISA SureFire in PC3 cells; type: cell-based; details: PC3 cells, 24 hours treatment, pS6K Thr389; analogs substituted at C40 and C16 (C16 diastereomer mixtures not isolated); read-out: pIC50 mTORC1 (converted)

Consider the reported IC50 for these compounds:
INSERT INTO results (compound, study_system, reported_value) VALUES
  ('CO[C@@H]1C[C@H](C[C@@H](C)[C@@H]2CC(=O)[C@H](C)/C=C(\C)[C@@H](O)[C@@H](OC)C(=O)[C@H](C)C[C@H](C)/C=C/C=C/C=C(\C)C(OC3COC3)C[C@@H]3CC[C@@H](C)[C@@](O)(O3)C(=O)C(=O)N3CCCCC3C(=O)O2)CC[C@H]1OC(=O)NCCN1CCOCC1 (stereo partly shown)', 'mTORC1 (Homo sapiens, UniProt P42345+P62942)', '316 to 3160 pM'),
  ('CO[C@@H]1C[C@H](C[C@@H](C)[C@@H]2CC(=O)[C@H](C)/C=C(\C)[C@@H](O)[C@@H](OC)C(=O)[C@H](C)C[C@H](C)/C=C/C=C/C=C(\C)C(OCCO)C[C@@H]3CC[C@@H](C)[C@@](O)(O3)C(=O)C(=O)N3CCCCC3C(=O)O2)CC[C@H]1OCCN1CCOCC1 (stereo partly shown)', 'mTORC1 (Homo sapiens, UniProt P42345+P62942)', '< 316 pM'),
  ('COCCOC1C[C@@H]2CC[C@@H](C)[C@@](O)(O2)C(=O)C(=O)N2CCCCC2C(=O)O[C@H]([C@H](C)C[C@@H]2CC[C@@H](OCCCN3CCCCC3)[C@H](OC)C2)CC(=O)[C@H](C)/C=C(\C)[C@@H](O)[C@@H](OC)C(=O)[C@H](C)C[C@H](C)/C=C/C=C/C=C/1C (stereo partly shown)', 'mTORC1 (Homo sapiens, UniProt P42345+P62942)', '< 316 pM');

Query IC50 on mTORC1 (Homo sapiens, UniProt P42345+P62942) for COCCOC1C[C@@H]2CC[C@@H](C)[C@@](O)(O2)C(=O)C(=O)N2CCCCC2C(=O)O[C@H]([C@H](C)C[C@@H]2CC[C@@H](OCCN3CCCCC3)[C@H](OC)C2)CC(=O)[C@H](C)/C=C(\C)[C@@H](O)[C@@H](OC)C(=O)[C@H](C)C[C@H](C)/C=C/C=C/C=C/1C (stereo partly shown)
< 316 pM

Now consider CO[C@@H]1C[C@H](C[C@@H](C)[C@@H]2CC(=O)[C@H](C)/C=C(\C)[C@@H](O)[C@@H](OC)C(=O)[C@H](C)C[C@H](C)/C=C/C=C/C=C(\C)C(OCCO)C[C@@H]3CC[C@@H](C)[C@@](O)(O3)C(=O)C(=O)N3CCCCC3C(=O)O2)CC[C@H]1OCCCN1C[C@@H](C)O[C@@H](C)C1 (stereo partly shown) .
< 316 pM

Now consider CO[C@@H]1C[C@H](C[C@@H](C)[C@@H]2CC(=O)[C@H](C)/C=C(\C)[C@@H](O)[C@@H](OC)C(=O)[C@H](C)C[C@H](C)/C=C/C=C/C=C(\C)C(OCCCO)C[C@@H]3CC[C@@H](C)[C@@](O)(O3)C(=O)C(=O)N3CCCCC3C(=O)O2)CC[C@H]1OCCO (stereo partly shown) .
< 316 pM

Now consider CO[C@@H]1C[C@H](C[C@@H](C)[C@@H]2CC(=O)[C@H](C)/C=C(\C)[C@@H](O)[C@@H](OC)C(=O)[C@H](C)C[C@H](C)/C=C/C=C/C=C(\C)C(OCC(C)(C)O)C[C@@H]3CC[C@@H](C)[C@@](O)(O3)C(=O)C(=O)N3CCCCC3C(=O)O2)CC[C@H]1OCCO (stereo partly shown) .
316 to 3160 pM

Entry source: patent US12565505B2
